Tested on: A549
assay summary: Cytotoxicity against human A549 cells assessed as inhibition of cell proliferation after 72 hrs by SRB assay
Format: functional, cell-based
study conditions: A549, 72 h
pIC50: −log10 of the molar value.

| mol smiles | pIC50 |
| --- | --- |
| CO[C@@H]1O[C@@H]2O[C@@]3(C)CC[C@H]4[C@H](C)CC[C@@H]([C@]15CC(c1c(Cl)cccc1Cl)=NO5)[C@@]24OO3 | < 4.70 |
| C[C@@H]1CC[C@@H]2[C@]34OO[C@](C)(CC[C@@H]13)O[C@H]4OC(=O)[C@@]21CC(c2ccccc2)=NO1 | < 4.70 |
| COc1cc2c(cc1OC)[C@H]1C[C@]3(ON1CC2)C(=O)O[C@@H]1O[C@@]2(C)CC[C@H]4[C@H](C)CC[C@@H]3[C@@]14OO2 | 5.33 |
